All figures here come from patent US20230080534A1.

Target: T1, SEMG2(354-403) fragment (human)
T1 peptide: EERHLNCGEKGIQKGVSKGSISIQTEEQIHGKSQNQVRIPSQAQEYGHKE
Test: ELISA, immobilized antigen SEMG2 (354-403)
parameter: binding result

MM14 (antibody, IgG2b, V domains shown) VH: QVQLKESGPGLVAPSQSLSITCTVSGFSLTSYAVSWVRQPPGKGLEWLGIIWGDGSTNYHSALISRLSISKDNSKSQVFLKLNSLQTDDTATYYCAKQERFSDGYYDGFAYWGQGTLVTVSA VL: QIVLTQSPAIMSASPGEKVTITCSASSSVSYMHWFQQKPGTSPKLWIYSTSNLASGVPARFSGSGSGTSYSLTISRMEAEDAATYYCQQRSSYPFTFGSGTKLEIKR
no binding
MM08 (antibody, IgG1, V domains shown) VH: QVQLQQPGAELVRPGASVKLSCKSSDYTFTRYWMNWVKQRPGQGLEWIGMIDPSDSETHHNQMFKDKATLTVDKSSSTAYMQLSSLTSEDSAVYFCARYLGGKEGSFDYWGQGTTLTVSS VL: DIVLTQSPSSLAVSAGERVTMSCKSSQSLFNSRTRKNYLAWYQQKPGQSPKLLLYWASTRESGVPDRFTGSGSGTDFTLTISSVKTEDLAVYYCKQSYELPWTFGGGTKLEMKR
no binding
